Parameter: Kd. Scope: all listed entries.
Biological target: Poly [ADP-ribose] polymerase tankyrase-1 (Homo sapiens, UniProt O95271)
Sequence (O95271 whole entry): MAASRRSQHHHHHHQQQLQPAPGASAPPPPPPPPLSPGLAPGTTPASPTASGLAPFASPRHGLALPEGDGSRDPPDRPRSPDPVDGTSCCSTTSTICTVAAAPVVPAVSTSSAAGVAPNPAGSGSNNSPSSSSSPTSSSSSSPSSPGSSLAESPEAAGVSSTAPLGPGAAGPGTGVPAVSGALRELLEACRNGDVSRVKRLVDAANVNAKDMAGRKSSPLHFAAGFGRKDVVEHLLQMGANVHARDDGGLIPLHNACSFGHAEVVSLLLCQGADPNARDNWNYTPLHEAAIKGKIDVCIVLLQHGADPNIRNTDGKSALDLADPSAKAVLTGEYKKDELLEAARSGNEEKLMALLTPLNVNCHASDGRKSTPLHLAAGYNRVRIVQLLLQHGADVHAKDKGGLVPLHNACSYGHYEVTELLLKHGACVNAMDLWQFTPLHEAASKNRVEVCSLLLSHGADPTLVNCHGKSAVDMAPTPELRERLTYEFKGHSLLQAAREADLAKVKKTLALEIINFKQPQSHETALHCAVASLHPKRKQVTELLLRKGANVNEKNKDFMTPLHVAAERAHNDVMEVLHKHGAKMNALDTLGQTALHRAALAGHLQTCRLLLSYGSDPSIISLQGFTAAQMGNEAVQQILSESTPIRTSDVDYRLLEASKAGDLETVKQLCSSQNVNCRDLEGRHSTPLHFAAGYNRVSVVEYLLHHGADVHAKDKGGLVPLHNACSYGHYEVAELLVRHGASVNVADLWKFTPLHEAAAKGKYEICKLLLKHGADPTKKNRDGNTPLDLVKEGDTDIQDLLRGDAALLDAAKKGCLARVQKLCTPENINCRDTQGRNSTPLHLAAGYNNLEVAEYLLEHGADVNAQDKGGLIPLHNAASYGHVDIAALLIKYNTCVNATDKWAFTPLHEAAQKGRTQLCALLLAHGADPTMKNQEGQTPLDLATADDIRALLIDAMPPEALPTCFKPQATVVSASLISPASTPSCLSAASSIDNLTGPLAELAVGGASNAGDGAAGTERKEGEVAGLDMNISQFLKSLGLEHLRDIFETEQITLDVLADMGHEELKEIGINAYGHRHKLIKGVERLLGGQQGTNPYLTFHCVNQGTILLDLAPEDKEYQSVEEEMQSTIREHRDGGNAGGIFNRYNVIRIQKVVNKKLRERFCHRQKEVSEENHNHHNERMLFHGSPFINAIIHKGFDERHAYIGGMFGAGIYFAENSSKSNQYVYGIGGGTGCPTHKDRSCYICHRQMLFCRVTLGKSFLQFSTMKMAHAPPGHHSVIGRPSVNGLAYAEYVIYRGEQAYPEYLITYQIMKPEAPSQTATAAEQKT
Assay: Binding affinity to recombinant human N-terminal GSt-tagged TNKS1 (1000 to 1328 residues) expressed in baculovirus infected Sf9 cells by surface plasmon resonance analysis
Details: read-out: Kd

COMPOUND SMILES: C=CCc1cc(O)c(O)c(-c2cc(CC=C)cc(OC)c2O)c1
Kd (µM): 0.52
--
COMPOUND SMILES: C=CCc1ccc(O)c(-c2cc(CC=C)cc(O)c2O)c1
Kd (µM): 5.26

The origin of these recorded values is ChEMBL document CHEMBL4229413.
